From: the supplement of paper PMC10307832

test system: A-427; assay: relative viability (nuclei count vs DMSO), 5 days (fraction); higher = more cells survive; settings: first compound 0.04 µM
OBSERVED PROPERTY: relative viability
Form: value (number only, do not type unit).

MOLECULE	TARGET DESC	ENDPOINT RESULT
C[C@@H]1CN(CC(=O)Nc2ccc3c(c2)Cc2cccc(-c4cc(=O)cc(N5CCOCC5)o4)c2S3)C[C@H](C)O1 + CC(=O)c1c(C)c2cnc(Nc3ccc(N4CCNCC4)cn3)nc2n(C2CCCC2)c1=O [Palbociclib] (partner 0.5 µM)	A-427	0.428
C[C@@H]1CN(CC(=O)Nc2ccc3c(c2)Cc2cccc(-c4cc(=O)cc(N5CCOCC5)o4)c2S3)C[C@H](C)O1 + O=C(CCCCCCC(=O)Nc1ccccc1)NO [Vorinostat] (partner 1 µM)	A-427	0.853
COc1cc(N2CCC(C(N)=O)CC2)ccc1Nc1nc(N)c(Cl)c(Nc2ccccc2S(=O)(=O)C(C)C)n1 [HG-5-88-01] + Cc1nc(Nc2ncc(C(=O)Nc3c(C)cccc3Cl)s2)cc(N2CCN(CCO)CC2)n1 [Dasatinib] (partner 0.075 µM)	A-427	0.77
Clc1ccc(Nc2nnc(Cc3ccncc3)c3ccccc23)cc1 [Vatalanib] + CC1(C)CCC(c2ccc(Cl)cc2)=C(CN2CCN(c3ccc(C(=O)NS(=O)(=O)c4ccc(N[C@H](CCN5CCOCC5)CSc5ccccc5)c(S(=O)(=O)C(F)(F)F)c4)cc3)CC2)C1 [Navitoclax] (partner 0.5 µM)	A-427	0.998
COc1cc(N2CCC(C(N)=O)CC2)ccc1Nc1nc(N)c(Cl)c(Nc2ccccc2S(=O)(=O)C(C)C)n1 [HG-5-88-01] + CS(=O)(=O)N1CCN(Cc2cc3nc(-c4cccc5[nH]ncc45)nc(N4CCOCC4)c3s2)CC1 [Pictilisib] (partner 1 µM)	A-427	0.716

Note: attention shifts to another entry.
Task: What measured relative viability goes with C[C@@H]1CN(CC(=O)Nc2ccc3c(c2)Cc2cccc(-c4cc(=O)cc(N5CCOCC5)o4)c2S3)C[C@H](C)O1 + COc1cccc2cc(-c3nc([C@H]4CC[C@H](C(=O)O)CC4)n4ncnc(N)c34)[nH]c12 [OSI-027] (partner 0.5 µM) ?
Result: 0.501

###

test system: NCI-H460; assay: relative viability (nuclei count vs DMSO), 5 days (fraction); higher = more cells survive; conditions: first compound 0.4 µM
Quick list: relative viability per entry.
Form: value (number only, do not type unit).

COMPOUND	ENDPOINT RESULT
COc1cc(N2CCC(C(N)=O)CC2)ccc1Nc1nc(N)c(Cl)c(Nc2ccccc2S(=O)(=O)C(C)C)n1 [HG-5-88-01] + COc1cc2c(Oc3ccc(NC(=O)C4(C(=O)Nc5ccc(F)cc5)CC4)cc3F)ccnc2cc1OCCCN1CCOCC1 [Foretinib] (partner 0.25 µM)	0.929

Note: attention shifts to another entry.
Task: What measured relative viability goes with C[C@@H]1CN(CC(=O)Nc2ccc3c(c2)Cc2cccc(-c4cc(=O)cc(N5CCOCC5)o4)c2S3)C[C@H](C)O1 + COc1cccc2cc(-c3nc([C@H]4CC[C@H](C(=O)O)CC4)n4ncnc(N)c34)[nH]c12 [OSI-027] (partner 0.5 µM) ?
Result: 0.587

###

tested on: UMC-11; assay: relative viability (nuclei count vs DMSO), 5 days (fraction); higher = more cells survive; settings: first compound 0.03162 µM
OBSERVED PROPERTY: relative viability
Form: value (number only, do not type unit).

Consider the following illustrative entries.
MOLECULE	relative viability
CC(C)Oc1cc(Nc2nc(N[C@@H](C)c3ccc(F)cn3)ncc2Cl)n[nH]1 [AZ23] + Cc1cc(Nc2cc(N3CCN(C)CC3)nc(Sc3ccc(NC(=O)C4CC4)cc3)n2)n[nH]1 [Tozasertib] (partner 0.1 µM)	0.197
CC(C)Oc1cc(Nc2nc(N[C@@H](C)c3ccc(F)cn3)ncc2Cl)n[nH]1 [AZ23] + CCNC(=O)c1noc(-c2cc(C(C)C)c(O)cc2O)c1-c1ccc(CN2CCOCC2)cc1 [Luminespib] (partner 0.01 µM)	1.05

Note: attention shifts to another entry.
Task: What measured relative viability goes with CC(C)Oc1cc(Nc2nc(N[C@@H](C)c3ccc(F)cn3)ncc2Cl)n[nH]1 [AZ23] + CC(=O)c1c(C)c2cnc(Nc3ccc(N4CCNCC4)cn3)nc2n(C2CCCC2)c1=O [Palbociclib] (partner 0.5 µM) ?
Result: 0.338

###

tested on: NCI-H2347; test: relative viability (nuclei count vs DMSO), 5 days (fraction); higher = more cells survive; details: first compound 0.01 µM
Quick list: relative viability per entry.
Form: value (number only, do not type unit).

Consider the following illustrative entries.
MOLECULE	relative viability
CC(C)Oc1cc(Nc2nc(N[C@@H](C)c3ccc(F)cn3)ncc2Cl)n[nH]1 [AZ23] + C[C@]1(O)C[C@@H](c2nc(-c3ccc4ccc(-c5ccccc5)nc4c3)c3c(N)nccn32)C1 [Linsitinib] (partner 1 µM)	1.03
CC(C)Oc1cc(Nc2nc(N[C@@H](C)c3ccc(F)cn3)ncc2Cl)n[nH]1 [AZ23] + C[C@@H](Oc1cc(-c2cnn(C3CCNCC3)c2)cnc1N)c1c(Cl)ccc(F)c1Cl [Crizotinib] (partner 1 µM)	0.736
CC(C)Oc1cc(Nc2nc(N[C@@H](C)c3ccc(F)cn3)ncc2Cl)n[nH]1 [AZ23] + CS(=O)(=O)N1CCN(Cc2cc3nc(-c4cccc5[nH]ncc45)nc(N4CCOCC4)c3s2)CC1 [Pictilisib] (partner 1 µM)	0.525
CC(C)Oc1cc(Nc2nc(N[C@@H](C)c3ccc(F)cn3)ncc2Cl)n[nH]1 [AZ23] + Nc1nc2[nH]cc(CCc3ccc(C(=O)N[C@@H](CCC(=O)O)C(=O)O)cc3)c2c(=O)[nH]1 [Pemetrexed] (partner 0.2 µM)	0.379
CC(C)Oc1cc(Nc2nc(N[C@@H](C)c3ccc(F)cn3)ncc2Cl)n[nH]1 [AZ23] + COc1cccc2cc(-c3nc([C@H]4CC[C@H](C(=O)O)CC4)n4ncnc(N)c34)[nH]c12 [OSI-027] (partner 0.5 µM)	0.298

Note: attention shifts to another entry.
Task: What measured relative viability goes with CC(C)Oc1cc(Nc2nc(N[C@@H](C)c3ccc(F)cn3)ncc2Cl)n[nH]1 [AZ23] + CS(=O)(=O)CCNCc1ccc(-c2ccc3ncnc(Nc4ccc(OCc5cccc(F)c5)c(Cl)c4)c3c2)o1 [Lapatinib] (partner 2 µM) ?
Result: 1.05

###

test system: NCI-H1993; assay: relative viability (nuclei count vs DMSO), 5 days (fraction); higher = more cells survive; settings: first compound 2.53 µM
Quick list: relative viability per entry.

Consider the following illustrative entries.
COMPOUND	TARGET DESC	ENDPOINT RESULT
CCCCCCCCCCCC1=C(O)C(=O)C=C(O)C1=O [Embelin] + CC(=O)c1c(C)c2cnc(Nc3ccc(N4CCNCC4)cn3)nc2n(C2CCCC2)c1=O [Palbociclib] (partner 0.5 µM)	NCI-H1993	0.721
CCCCCCCCCCCC1=C(O)C(=O)C=C(O)C1=O [Embelin] + CS(=O)(=O)CCNCc1ccc(-c2ccc3ncnc(Nc4ccc(OCc5cccc(F)c5)c(Cl)c4)c3c2)o1 [Lapatinib] (partner 2 µM)	NCI-H1993	0.803
CCCCCCCCCCCC1=C(O)C(=O)C=C(O)C1=O [Embelin] + CC1(C)CCC(c2ccc(Cl)cc2)=C(CN2CCN(c3ccc(C(=O)NS(=O)(=O)c4ccc(N[C@H](CCN5CCOCC5)CSc5ccccc5)c(S(=O)(=O)C(F)(F)F)c4)cc3)CC2)C1 [Navitoclax] (partner 0.5 µM)	NCI-H1993	0.916
CCCCCCCCCCCC1=C(O)C(=O)C=C(O)C1=O [Embelin] + CS(=O)(=O)N1CCN(Cc2cc3nc(-c4cccc5[nH]ncc45)nc(N4CCOCC4)c3s2)CC1 [Pictilisib] (partner 1 µM)	NCI-H1993	0.776

Note: attention shifts to another entry.
Task: // map CCCCCCCCCCCC1=C(O)C(=O)C=C(O)C1=O [Embelin] + N=C(N)NC(=N)NCCc1ccccc1 [Phenformin] (partner 250 µM) to recorded relative viability (system: NCI-H1993)
Result: 0.489

###

tested on: COR-L 105; test: relative viability (nuclei count vs DMSO), 5 days (fraction); higher = more cells survive; conditions: first compound 0.4 µM
Quick list: relative viability per entry.
Form: value (number only, do not type unit).

Consider the following illustrative entries.
COMPOUND	TARGET DESC	relative viability
C[C@@H]1CN(CC(=O)Nc2ccc3c(c2)Cc2cccc(-c4cc(=O)cc(N5CCOCC5)o4)c2S3)C[C@H](C)O1 + COc1cc2c(Oc3ccc(NC(=O)C4(C(=O)Nc5ccc(F)cc5)CC4)cc3F)ccnc2cc1OCCCN1CCOCC1 [Foretinib] (partner 0.25 µM)	COR-L 105	1.17
Clc1ccc(Nc2nnc(Cc3ccncc3)c3ccccc23)cc1 [Vatalanib] + Nc1ncn([C@H]2C[C@H](O)[C@@H](CO)O2)c(=O)n1 [Decitabine] (partner 2 µM)	COR-L 105	0.796
COc1cc(N2CCC(C(N)=O)CC2)ccc1Nc1nc(N)c(Cl)c(Nc2ccccc2S(=O)(=O)C(C)C)n1 [HG-5-88-01] + CS(=O)(=O)CCNCc1ccc(-c2ccc3ncnc(Nc4ccc(OCc5cccc(F)c5)c(Cl)c4)c3c2)o1 [Lapatinib] (partner 2 µM)	COR-L 105	0.329
C[C@@H]1CN(CC(=O)Nc2ccc3c(c2)Cc2cccc(-c4cc(=O)cc(N5CCOCC5)o4)c2S3)C[C@H](C)O1 + CC(=O)c1c(C)c2cnc(Nc3ccc(N4CCNCC4)cn3)nc2n(C2CCCC2)c1=O [Palbociclib] (partner 0.5 µM)	COR-L 105	0.397
C[C@@H]1CN(CC(=O)Nc2ccc3c(c2)Cc2cccc(-c4cc(=O)cc(N5CCOCC5)o4)c2S3)C[C@H](C)O1 + Nc1nc2[nH]cc(CCc3ccc(C(=O)N[C@@H](CCC(=O)O)C(=O)O)cc3)c2c(=O)[nH]1 [Pemetrexed] (partner 0.2 µM)	COR-L 105	1.19

Task: What measured relative viability goes with COc1cc(N2CCC(C(N)=O)CC2)ccc1Nc1nc(N)c(Cl)c(Nc2ccccc2S(=O)(=O)C(C)C)n1 [HG-5-88-01] + Cc1cc(Nc2cc(N3CCN(C)CC3)nc(Sc3ccc(NC(=O)C4CC4)cc3)n2)n[nH]1 [Tozasertib] (partner 0.1 µM) ?
Result: 0.317

Task: What measured relative viability goes with C[C@@H]1CN(CC(=O)Nc2ccc3c(c2)Cc2cccc(-c4cc(=O)cc(N5CCOCC5)o4)c2S3)C[C@H](C)O1 + Cc1nc(Nc2ncc(C(=O)Nc3c(C)cccc3Cl)s2)cc(N2CCN(CCO)CC2)n1 [Dasatinib] (partner 0.075 µM) ?
Result: 0.383

Task: What measured relative viability goes with C[C@@H]1CN(CC(=O)Nc2ccc3c(c2)Cc2cccc(-c4cc(=O)cc(N5CCOCC5)o4)c2S3)C[C@H](C)O1 + CS(=O)(=O)N1CCN(Cc2cc3nc(-c4cccc5[nH]ncc45)nc(N4CCOCC4)c3s2)CC1 [Pictilisib] (partner 1 µM) ?
Result: 0.375
